- SYSTEM UNDER TEST: human PAD4 (hPAD4) (Homo sapiens, UniProt Q9UM07)
- Sequence (Q9UM07 whole entry): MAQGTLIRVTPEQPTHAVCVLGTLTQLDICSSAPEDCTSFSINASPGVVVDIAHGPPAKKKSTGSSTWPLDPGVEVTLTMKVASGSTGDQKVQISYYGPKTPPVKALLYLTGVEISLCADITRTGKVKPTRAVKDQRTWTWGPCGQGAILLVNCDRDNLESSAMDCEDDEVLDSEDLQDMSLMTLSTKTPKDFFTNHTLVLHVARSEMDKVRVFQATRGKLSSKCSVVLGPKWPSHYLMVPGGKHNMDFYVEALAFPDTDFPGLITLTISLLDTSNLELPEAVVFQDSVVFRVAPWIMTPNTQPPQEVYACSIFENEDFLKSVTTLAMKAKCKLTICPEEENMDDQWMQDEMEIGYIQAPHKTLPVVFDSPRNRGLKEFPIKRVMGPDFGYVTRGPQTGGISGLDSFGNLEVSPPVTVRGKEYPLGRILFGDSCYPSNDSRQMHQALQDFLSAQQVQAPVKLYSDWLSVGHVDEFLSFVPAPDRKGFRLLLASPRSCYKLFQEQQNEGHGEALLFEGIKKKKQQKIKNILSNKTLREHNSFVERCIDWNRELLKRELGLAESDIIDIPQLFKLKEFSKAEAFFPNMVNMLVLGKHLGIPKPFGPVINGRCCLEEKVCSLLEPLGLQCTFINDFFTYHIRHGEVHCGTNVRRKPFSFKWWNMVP
- PROCEDURE SUMMARY: RFMS human PAD4 functional assay (rapid-fire mass spectrum)
- MEASUREMENT PARAMETERS: 5 nM hPAD4 enzyme, 250 μM BAEE, 50 μM Calcium; 30 min preincubation, 90 min reaction at 37° C.
PROPERTY NAME: IC50 (nM)

Record excerpt, results attached:
COc1cc(C(=O)N2CC3CCC2[C@@H]3N)cc2nc(-c3cc4ccccc4n3CC3CC3)n(CC3CN(C(=O)c4cnc(Cl)s4)C3)c12 (stereo partly shown) :: 35
COc1cc(C(=O)N2C[C@H]3CC[C@@H]2[C@@H]3N)cc2nc(-c3cc4cc(Cl)ccc4n3C)n(CC3CN(c4ncccn4)C3)c12 :: 192
COc1cc(C(=O)N2CC3CCC2[C@@H]3N)cc2nc(-c3cc4ccccc4n3CC3CC3)n(Cc3cnn(C)n3)c12 (stereo partly shown) :: 163
COc1cc(C(=O)N2C[C@H](N)C[C@@H](F)C2)cc2nc(-c3cc4cccnc4n3CC3CC3)n(Cc3cnn(-c4ncc(F)cc4F)c3)c12 :: 49

a: COc1cc(C(=O)N2CC3CCC2[C@@H]3N)cc2nc(-c3cc4cccnc4n3CC3CC3)n(Cc3cnn(-c4ccc(F)cn4)c3)c12 (stereo partly shown)
b: COc1cc(C(=O)N2CC3CCC2[C@@H]3N)cc2nc(-c3cc4ccccc4n3CC3CC3)n(CC3CC(=O)N(C)C3)c12 (stereo partly shown) [Example 474]
I'd appreciate it if you could identify which of a and b has the greater IC50. Please reply using the label of the selected record.
b
(b: 149 nM, a: 30 nM)

###

- SYSTEM UNDER TEST: human PAD4 (hPAD4) (Homo sapiens)
- PROCEDURE SUMMARY: RFMS human PAD4 functional assay (rapid-fire mass spectrum)
- MEASUREMENT PARAMETERS: 5 nM hPAD4 enzyme, 250 μM BAEE, 50 μM Calcium; 30 min preincubation, 90 min reaction at 37° C.
- Protocol: Compounds of the present invention were assayed as inhibitors of PAD4 using the assay protocol described below. RFMS tinman PAD4 Functional Assay: Compounds were solubilized in 100% DMSO to achieve a 10 mM compound concentration. Compound stock solutions were stored at RT. A series of dilutions were prepared in DMSO and mixed 8 times with 20 μl, mixing volume. Final top concentration of compound in the assay is 50 μM. […]
PROPERTY NAME: IC50 (nM)

COc1cc(C(=O)N2C[C@H]3CC[C@@H]2[C@@H]3N)cc2nc(-c3cc4ccccc4n3CC3CC3)n(C[C@H]3CCN(c4ccnc(C5CC5)n4)C3)c12 :: 41

1: COc1cc(C(=O)N2C[C@H]3CC[C@@H]2[C@@H]3N)cc2nc(-c3cc4ccccc4n3CC3CC3)n(CC3CN(c4cncc(C#N)c4)C3)c12
2: COc1cc(C(=O)N2C[C@H]3CC[C@@H]2[C@@H]3N)cc2nc(-c3cc4ccccc4n3CC3CC3)n(CC3CN(C(=O)c4ccc(C#N)cc4F)C3)c12
Lab note: check whether 1 or 2 shows the higher recorded IC50. Lab log: write the label of the selected item as the result.
1
(1: 40 nM, 2: 26 nM)
